tested on: Plasmodium falciparum; experiment: GSK_TCMDC: Inhibition of Plasmodium falciparum Dd2 in whole red blood cells, using parasite LDH activity as an index of growth. Test compounds present at 2uM; format: functional
Response field label: string, one of true (Inhibition strictly below 70%) or false.

COMPOUND	LABEL VALUE
CN1CCN(C(=O)CN2CCC3(CCC2=O)NC(=O)c2ccccc2O3)CC1 (stereo not drawn)	false
NCCO.O=C(Nc1ccc([N+](=O)[O-])cc1Cl)c1cc(Br)cc(Cc2ccccc2)c1O	false
CC(C)c1ccc(CN2CCC(CNC(=O)c3cc(-c4cccc(F)c4)cs3)C2)cc1.O=C(O)C(F)(F)F (stereo not drawn)	true
COc1ccccc1-c1nc2c(ccc3nc(N)nc(N)c32)[nH]1	false
CCN(CCCN1CCCCC1)c1cc(C)nc(Nc2ccc(Oc3ccccc3)cc2)n1.O=C(O)C(F)(F)F	false
Cl.FC(F)(F)c1cc(CNCCCNc2nc3ccncc3[nH]2)ccc1Cl	true
Cc1c(CC(=O)N(C)C2CCN(CCCCCNC(=O)/C=C/c3ccc(Cl)c(Cl)c3)CC2)sc2ccc(Cl)cc12	true
O=C(Nc1ccc(CN2CCN(S(=O)(=O)c3cccc(Cl)c3)CC2)cc1)c1cccs1.O=C(O)C(F)(F)F	true
Cc1cccc2nc(-c3ccc(-c4cccc(CN5CCN(CCN6CCOCC6)CC5)c4)s3)[nH]c12.O=C(O)C(F)(F)F	false
COC(=O)c1cccc(NC(=O)NC2CCN(c3ccnc(Nc4ccc(OC)cc4)n3)C2)c1 (stereo not drawn)	true

### Prompt Bench note: check whether O=C(Nc1cccc(-c2ccc(CN3CCCC3)cc2)c1)c1cccc(F)c1.O=C(O)C(F)(F)F shows Inhibition below 70%
### Response true

### Prompt Is Inhibition of O=C(Nc1cccc(-c2cccc(-c3nc4cc(C(F)(F)F)ccc4[nH]3)c2)c1)c1cccnc1Cl strictly below 70%?
### Response true

### Prompt Determine if CCc1c[nH]c2c(N3CCCC3=O)cc(C(=O)N[C@@H](Cc3ccccc3)[C@H](O)CNC(C)(C)CCCC(C)C)cc12.O=CO shows Inhibition strictly lower than 70%.
### Response false

### Prompt Criterion: Inhibition strictly below 70%. Is it met by Cc1cc(N)c2cc(NC(=O)/C=C/c3ccccc3Cl)ccc2n1 ?
### Response false

###

test system: Plasmodium falciparum; test: GSK_TCMDC: Inhibition of Plasmodium falciparum Dd2 in whole red blood cells, using parasite LDH activity as an index of growth. Test compounds present at 2uM; type: functional
PROPERTY MEASURED: Inhibition (%)
Write down the numeric answer in % and omit the unit.

Example entries begin here.
COMPOUND	Inhibition [%]
COc1cccc2cc(C(=O)N[C@@H](CC(C)C)C(=O)N[C@H](/C=N/NC(=O)N3CCN(C)CC3)CCc3ccccc3)oc12.Cl	73
COc1cccc(C(=O)N2CCOC(CCN3CCC(c4ccccc4)CC3)(c3ccc(Cl)c(Cl)c3)C2)c1 (centres undefined)	63

Record summary for Cc1noc(-c2ccc(NC[C@@H](C)NC[C@H](O)c3cccc(Cl)c3)cc2)n1 : reported Inhibition = 84

Lab book: Inhibition of CCn1c(-c2nonc2N)nc2c(-c3ccccc3)ncc(OCCCCNCCc3ncc[nH]3)c21.O=C(O)C(F)(F)F noted as 42

###

tested on: Plasmodium falciparum; assay: GSK_TCMDC: Inhibition of Plasmodium falciparum 3D7 in whole red blood cells, using parasite LDH activity as an index of growth. Test compounds present at 2uM; format: functional
Below: a set of entries, each annotated with reported Inhibition.
Note: a bare number is incomplete; add the unit.

Form: compound = CC(C)c1ccc(NC(=O)c2ccc(CN3CCCN(CC4CCCCC4)CC3)cc2)cc1.O=C(O)C(F)(F)F ; Inhibition = 90%
